Where do these numbers come from? They come from patent US10196369B2.

# IC50 listing for each entry below
Study System: EBI2 (Homo sapiens, UniProt P32249)
Sequence (P32249 whole entry): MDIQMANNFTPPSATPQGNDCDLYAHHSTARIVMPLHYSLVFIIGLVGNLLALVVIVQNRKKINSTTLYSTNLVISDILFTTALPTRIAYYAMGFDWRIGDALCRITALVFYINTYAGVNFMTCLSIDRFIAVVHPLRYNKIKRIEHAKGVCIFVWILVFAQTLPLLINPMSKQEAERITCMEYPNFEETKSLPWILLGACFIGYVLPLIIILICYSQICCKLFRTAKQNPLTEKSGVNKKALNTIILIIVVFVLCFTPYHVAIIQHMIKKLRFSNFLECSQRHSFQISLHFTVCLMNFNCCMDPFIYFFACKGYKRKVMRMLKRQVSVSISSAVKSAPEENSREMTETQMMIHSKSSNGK
Experiment Summary: Cell-based luminescent assay of EBI2 modulation (7a,25-OHC stimulated)
Experimental Conditions: 7a,25-OHC final assay concentration 80 nM, 60 minute incubation

Solved entries:
>  <Smiles Record>
Cc1cccc(C(=O)N2CC3(CCN(C(=O)/C=C/c4ccc(Br)cc4)CC3)C2)c1

>  <Result>
< 100 nM

$$$$
>  <Smiles Record>
O=C(C#Cc1ccc(Cl)cc1)N1CC2(CCN(Cc3ccc(C(F)(F)F)cc3)CC2)C1

>  <Result>
500 to 5000 nM

$$$$
>  <Smiles Record>
O=C(C#Cc1ccc(Cl)cc1)N1CCC2(CC1)CN(Cc1ccc(Cl)cc1)C2

>  <Result>
< 100 nM

$$$$

State the recorded IC50 for this entry: "O=C(c1ccc(Cl)cc1)N1CCC2(CC1)CN(C(=O)c1cc3cc(Cl)ccc3[nH]1)C2" < 100 nM

---

Study System: EBI2 (Homo sapiens, UniProt P32249)
Experiment Summary: Cell-based luminescent assay of EBI2 modulation (7a,25-OHC stimulated)
Experimental Conditions: 7a,25-OHC final assay concentration 80 nM, 60 minute incubation
Experimental: To assess EBI2 modulation, the compounds described herein were assayed in the following cell-based luminescent assay: 1) Plated 600 cells/well in 4 μL of assay media into columns 1-48 of a 1536-well assay plate, using a liquid dispenser. 2) Centrifuged plates at 1000 rpm for 1 minute and covered with lids. 3) Incubated overnight at 37° C., 100% relative humidity, 5% CO2. […] 10) Read plates using the Viewlux, Envision or other suitable plate reader using a luminescence detection. […]
Outcome Measure: IC50

Solved entries:
>  <Smiles Record>
O=C(/C=C/c1ccc(Cl)c(Cl)c1)N1CC2(CCN(C(=O)c3ccc(C(F)(F)F)cc3)CC2)C1

>  <Study System>
EBI2 (Homo sapiens, UniProt P32249)

>  <IC50>
< 100 nM

$$$$
>  <Smiles Record>
O=C(/C=C/c1ccc(Cl)c(Cl)c1)N1CC2(CCN(Cc3ccc(F)cc3)CC2)C1

>  <Study System>
EBI2 (Homo sapiens, UniProt P32249)

>  <IC50>
100 to 500 nM

$$$$
>  <Smiles Record>
O=C(/C=C/c1ccc(Br)cc1)N1CC2(CCN(C(=O)c3cccc(Br)c3)CC2)C1

>  <Study System>
EBI2 (Homo sapiens, UniProt P32249)

>  <IC50>
< 100 nM

$$$$

Now consider the entry below.
Hi! What's the reported IC50 for "O=C(C#Cc1ccc(Cl)cc1)N1CCC2(CC1)CN(C(=O)c1ccc(F)cc1)C2" on EBI2 (Homo sapiens, UniProt P32249)? < 100 nM

---

Study System: EBI2 (Homo sapiens)
Experiment Summary: Cell-based luminescent assay of EBI2 modulation (7a,25-OHC stimulated)
Experimental Conditions: 7a,25-OHC final assay concentration 80 nM, 60 minute incubation
pIC50: −log10 of the molar value.
Outcome Measure: pIC50

Hi! What's the reported pIC50 for O=C(C#Cc1ccc(Cl)cc1)N1CC2(CCN(C(=O)c3ccc(F)cc3)CC2)C1 [Compound C3] on EBI2 (Homo sapiens)? 6.30 to 7.00

Cool, now O=C(C#Cc1ccc(Cl)cc1)N1CCC2(CC1)CN(C(=O)c1ccc(C(F)(F)F)cc1)C2 [Compound C79] > 7.00

Cool, now O=C(/C=C/c1ccc(Cl)c(Cl)c1)N1CC2(CCN(Cc3ccc(Cl)cc3)CC2)C1 [Compound C33] 6.30 to 7.00

Cool, now O=C(/C=C/c1ccc(Br)cc1)N1CCC2(CC1)CN(C(=O)c1ccc(Cl)cc1)C2 [Compound L1] > 7.00

Cool, now O=C(/C=C/c1ccc(Br)cc1)N1CC2(CCN(Cc3ccc(F)c(C(F)(F)F)c3)CC2)C1 [Compound C27] 6.30 to 7.00

Cool, now O=C(C#Cc1ccc(Cl)cc1)N1CCC2(CC1)CN(Cc1ccc(C(F)(F)F)cc1)C2 [Compound C78] > 7.00

Cool, now COc1ccc(C(=O)N2CC3(CCN(C(=O)C#Cc4ccc(Br)cc4)CC3)C2)cc1 [Compound C74] > 7.00

Cool, now COc1ccc(C(=O)N2CC3(CCN(C(=O)C#Cc4ccc(F)cc4)CC3)C2)cc1 [Compound C89] 6.30 to 7.00
